src = ChEMBL document CHEMBL5214916

- assayedSystem: Angiotensin-converting enzyme 2 (Homo sapiens)
- Sequence (Q9BYF1 whole entry): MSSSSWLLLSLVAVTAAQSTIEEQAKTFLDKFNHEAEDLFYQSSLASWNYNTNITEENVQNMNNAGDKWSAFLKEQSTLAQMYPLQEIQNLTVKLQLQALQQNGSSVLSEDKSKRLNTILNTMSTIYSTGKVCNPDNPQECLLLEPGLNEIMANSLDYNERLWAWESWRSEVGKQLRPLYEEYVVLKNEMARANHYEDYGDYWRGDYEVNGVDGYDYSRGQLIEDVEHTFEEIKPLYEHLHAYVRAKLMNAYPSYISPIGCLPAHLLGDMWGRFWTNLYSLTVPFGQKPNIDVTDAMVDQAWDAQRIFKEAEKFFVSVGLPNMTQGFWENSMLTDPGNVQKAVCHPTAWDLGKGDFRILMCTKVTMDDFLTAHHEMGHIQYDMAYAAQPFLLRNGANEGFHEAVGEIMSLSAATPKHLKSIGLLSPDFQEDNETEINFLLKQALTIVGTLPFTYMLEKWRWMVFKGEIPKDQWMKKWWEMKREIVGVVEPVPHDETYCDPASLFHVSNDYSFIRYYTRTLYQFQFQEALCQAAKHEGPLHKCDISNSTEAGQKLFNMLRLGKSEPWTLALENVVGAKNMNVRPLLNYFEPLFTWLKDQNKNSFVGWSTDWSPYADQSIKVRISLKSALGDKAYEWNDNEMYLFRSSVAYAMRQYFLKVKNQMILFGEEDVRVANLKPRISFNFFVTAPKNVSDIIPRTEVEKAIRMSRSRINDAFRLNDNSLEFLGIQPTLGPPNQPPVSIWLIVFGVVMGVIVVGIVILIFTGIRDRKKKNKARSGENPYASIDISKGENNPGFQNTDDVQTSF
- assay: Inhibition of recombinant human ACE2 using 7-Mca-YVADAPK (Dnp) as substrate by fluorescence plate reader assay
measuredQuantity: IC50 (nM)
Give the number; nM is assumed, so skip it.

# lookup: IC50 of CC(C)CC(N[C@@H](Cc1cncn1Cc1cc(Cl)cc(Cl)c1)C(=O)O)C(=O)O (mixture of isomers)
3.16

I am curious: what IC50 value has been reported for CC(C)C[C@@H](N[C@@H](Cc1cncn1Cc1cc(Cl)cc(Cl)c1)C(=O)O)C(=O)O ?
1.26

###

For each record, write down the corresponding pKi.
pKi field: float, defined as -log10 of concentration (mol/L).

Notebook: pull reported pKi for Transmembrane protease serine 2 (Homo sapiens), entry CNC(=O)NCCC1CCN(C(=O)[C@H](Cc2cccc(C(=N)N)c2)NS(=O)(=O)c2cccc(-c3ccc(Cl)cc3Cl)c2)CC1
8.52

Notebook entry, Transmembrane protease serine 2 (Homo sapiens) assay: pKi of COc1ccc(-c2cccc(S(=O)(=O)N[C@@H](Cc3cccc(C(=N)N)c3)C(=O)N3CCC(CCN)CC3)c2)c(OC)c1 = ?
9.00

State its pKi on Transmembrane protease serine 2 (Homo sapiens): N=C(N)c1cccc(C[C@H](NS(=O)(=O)c2cccc(-c3ccc(Cl)cc3Cl)c2)C(=O)N2CCC(CCN)CC2)c1
Sequence (O15393 1-255 limits assumed): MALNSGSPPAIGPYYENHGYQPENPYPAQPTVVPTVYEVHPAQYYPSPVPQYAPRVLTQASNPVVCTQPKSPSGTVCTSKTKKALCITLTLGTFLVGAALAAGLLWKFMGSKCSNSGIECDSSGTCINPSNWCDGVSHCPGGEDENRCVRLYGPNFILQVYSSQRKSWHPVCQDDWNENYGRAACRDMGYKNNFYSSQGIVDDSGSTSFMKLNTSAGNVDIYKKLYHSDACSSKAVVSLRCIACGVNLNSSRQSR
Sequence (O15393 256-492 limits assumed): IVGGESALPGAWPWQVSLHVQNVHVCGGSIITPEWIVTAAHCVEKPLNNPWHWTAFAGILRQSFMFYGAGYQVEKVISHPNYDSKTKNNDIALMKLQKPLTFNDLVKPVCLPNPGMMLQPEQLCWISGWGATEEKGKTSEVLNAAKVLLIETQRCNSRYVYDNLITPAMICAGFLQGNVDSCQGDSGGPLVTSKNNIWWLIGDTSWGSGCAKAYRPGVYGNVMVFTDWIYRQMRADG
9.05

Hi! What's the reported pKi for COc1ccc(-c2cccc(S(=O)(=O)N[C@@H](Cc3cccc(C(=N)N)c3)C(=O)N3CCC(NC(=O)NC4CCCCC4)CC3)c2)c(OC)c1 on Transmembrane protease serine 2 (Homo sapiens)?
8.52

Find pKi (Transmembrane protease serine 2 (Homo sapiens)) for the entry N=C(N)c1cccc(C[C@H](NS(=O)(=O)c2cccc(-c3ccc(Cl)cc3Cl)c2)C(=O)N2CCC(NC(=O)NC3CCCCC3)CC2)c1
8.52

Form field: pKi recorded for CNC(=O)NCCC1CCN(C(=O)[C@H](Cc2cccc(C(=N)N)c2)NS(=O)(=O)c2cccc(-c3ccc(OC)cc3OC)c2)CC1 with Transmembrane protease serine 2 (Homo sapiens) (enter value)
8.52

###

- assayedSystem: Angiotensin-converting enzyme (Homo sapiens, UniProt P12821)
- Sequence (P12821 whole entry): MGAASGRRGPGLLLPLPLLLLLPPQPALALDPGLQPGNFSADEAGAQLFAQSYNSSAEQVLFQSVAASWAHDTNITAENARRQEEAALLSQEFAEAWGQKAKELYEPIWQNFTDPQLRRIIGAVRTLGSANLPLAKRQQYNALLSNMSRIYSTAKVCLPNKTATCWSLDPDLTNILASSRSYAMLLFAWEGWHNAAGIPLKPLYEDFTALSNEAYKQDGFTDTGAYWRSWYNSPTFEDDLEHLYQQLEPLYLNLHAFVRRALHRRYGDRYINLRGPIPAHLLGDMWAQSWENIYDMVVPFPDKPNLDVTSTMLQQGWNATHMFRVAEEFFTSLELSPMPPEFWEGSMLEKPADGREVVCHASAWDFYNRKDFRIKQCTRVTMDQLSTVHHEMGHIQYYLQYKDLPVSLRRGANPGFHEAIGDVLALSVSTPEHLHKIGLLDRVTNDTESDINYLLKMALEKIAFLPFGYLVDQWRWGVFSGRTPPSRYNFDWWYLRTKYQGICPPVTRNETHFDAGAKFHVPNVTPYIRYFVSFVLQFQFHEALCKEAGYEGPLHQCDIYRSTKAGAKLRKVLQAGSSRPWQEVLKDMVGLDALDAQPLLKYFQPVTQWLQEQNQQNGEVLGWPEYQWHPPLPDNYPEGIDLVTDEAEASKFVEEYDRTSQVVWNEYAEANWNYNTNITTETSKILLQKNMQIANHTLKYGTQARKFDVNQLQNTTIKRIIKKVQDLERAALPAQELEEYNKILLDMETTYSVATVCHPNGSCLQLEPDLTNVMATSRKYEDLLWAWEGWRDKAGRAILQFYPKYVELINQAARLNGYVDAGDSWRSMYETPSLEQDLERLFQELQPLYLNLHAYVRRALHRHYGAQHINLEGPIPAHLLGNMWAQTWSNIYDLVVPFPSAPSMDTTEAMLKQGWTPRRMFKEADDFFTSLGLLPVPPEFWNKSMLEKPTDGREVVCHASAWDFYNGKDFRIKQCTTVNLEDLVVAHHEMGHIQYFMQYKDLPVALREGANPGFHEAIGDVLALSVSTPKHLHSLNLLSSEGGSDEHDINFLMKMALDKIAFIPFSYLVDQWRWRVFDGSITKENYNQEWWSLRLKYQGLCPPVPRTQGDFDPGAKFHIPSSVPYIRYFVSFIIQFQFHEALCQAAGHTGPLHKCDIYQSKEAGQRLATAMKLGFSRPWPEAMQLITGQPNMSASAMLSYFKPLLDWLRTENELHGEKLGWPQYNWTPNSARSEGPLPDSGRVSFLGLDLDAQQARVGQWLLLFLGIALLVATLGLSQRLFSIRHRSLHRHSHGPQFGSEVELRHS
- assay: Inhibition of recombinant human ACE using Mca-RPGFSAFK (Dnp)- OH as substrate by fluorescence plate reader assay
Could you please report measured IC50 for the items listed next?
Please state the figure in µM; there is no need to write the unit.

Quick one: IC50 for CC(C)C[C@@H](N[C@@H](Cc1cncn1Cc1cc(Cl)cc(Cl)c1)C(=O)O)C(=O)O ?
39.8

Please report the recorded IC50 for CC(C)CC(N[C@@H](Cc1cncn1Cc1cc(Cl)cc(Cl)c1)C(=O)O)C(=O)O (mixture of isomers) .
39.8
